Target or system ULK2 kinase (Homo sapiens): recorded IC50 listed per item.

Could you report IC50 for every entry in the following list?
1. [2H]C([2H])([2H])N1CCC(n2cc(Nc3ncc(C(F)(F)F)c(NCCCNC(=O)C4CCC4)n3)c(C)n2)CC1 [Example 20]
2. Cc1cc(C2CCNCC2)ccc1Nc1ncc(C(F)(F)F)c(NCCCN(C)C(=O)C2CCC2)n1 [Example 16]

Response:
["25 to 100 nM", "25 to 100 nM"]

Could you report IC50 for every entry in the following list?
1. Cc1cc(N2CCN(C)CC2)ccc1Nc1ncc(C(F)(F)F)c(NCCCNC(=O)C(C)(C)C)n1 [Example 12]
2. COc1cc(N2CCN(C)CC2)ccc1Nc1ncc(C(F)(F)F)c(NCCCNC(=O)C2CCC2)n1 [Example 4]
3. Cc1nn(C2CCN(CC(C)C)CC2)cc1Nc1ncc(C(F)(F)F)c(NCCCNC(=O)C2CCC2)n1 [Example 23]

Response:
["100 to 500 nM", "25 to 100 nM", "25 to 100 nM"]

* * *

TARGET_SYSTEM: ULK1 kinase (Homo sapiens)
Sequence (O75385 with tags, fused parts or gaps): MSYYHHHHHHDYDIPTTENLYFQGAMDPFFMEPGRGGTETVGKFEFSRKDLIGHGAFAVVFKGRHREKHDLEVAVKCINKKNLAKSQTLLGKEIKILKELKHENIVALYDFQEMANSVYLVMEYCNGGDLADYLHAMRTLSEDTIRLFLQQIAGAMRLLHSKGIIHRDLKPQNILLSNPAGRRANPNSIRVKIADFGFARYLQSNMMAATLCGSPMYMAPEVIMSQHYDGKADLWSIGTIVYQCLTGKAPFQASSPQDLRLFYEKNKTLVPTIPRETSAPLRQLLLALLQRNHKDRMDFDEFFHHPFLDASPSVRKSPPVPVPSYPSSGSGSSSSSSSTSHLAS
pIC50: −log10 of the molar value.
Give measured pIC50 for each item. Keep answers brief.

Study these solved cases before continuing.
SMILES_DATA: Cc1nn(C2CCN(CC(C)C)CC2)cc1Nc1ncc(C(F)(F)F)c(NCCCNC(=O)C2CCC2)n1
TARGET_SYSTEM: ULK1 kinase (Homo sapiens)
pIC50: 7.60 to 9.00
//
SMILES_DATA: Cc1cc(N2CCOCC2)ncc1Nc1ncc(C(F)(F)F)c(NCCCNC(=O)C2CCC2)n1
TARGET_SYSTEM: ULK1 kinase (Homo sapiens)
pIC50: 4.70 to 6.30
//
SMILES_DATA: COc1cc(N2CCN(C)CC2)ccc1Nc1ncc(C2CC2)c(NCCCNC(=O)C2CCC2)n1
TARGET_SYSTEM: ULK1 kinase (Homo sapiens)
pIC50: 4.70 to 6.30

Field: next compound
Query: Recorded pIC50 for `Cc1nn(C2CCN(C)CC2)cc1Nc1ncc(Cl)c(NCCCN(C)C(=O)C2CCC2)n1` with ULK1 kinase (Homo sapiens), please?
Response: 7.60 to 9.00

* * *

System: ULK kinase substrate ATG13 (phospho-Serine 318 ATG13) in MiaPaCa-2 cells
ASSAY_EXPLANATION: pATG13 ELISA in mutant KRas MiaPaCa-2 cells in combination with trametinib
Assay type: cell-based
CONDITION_NOTES: MiaPaCa-2 human pancreatic cancer cells, with 250 nM trametinib, overnight
pIC50: −log10 of the molar value.
QUANTITY: pIC50

Study these solved cases before continuing.
SMILES_DATA: Cc1cc(N2CCN(C)CC2)ccc1Nc1ncc(C(F)(F)F)c(NCCCNC(=O)C(C)(C)C)n1
pIC50: 6.52 to 7.00

SMILES_DATA: CCc1cc(N2CCN(C)CC2)ccc1Nc1ncc(C(F)(F)F)c(NCCCNC(=O)C2CCC2)n1
pIC50: 7.00 to 8.00

Could you report pIC50 for every entry in the following list?
1. CC(C)c1cc(N2CCN(C)CC2)ccc1Nc1ncc(Br)c(NCCCNC(=O)C2CCC2)n1
2. COc1cc(N2CCN(C)CC2)ccc1Nc1ncc(C(F)(F)F)c(NCCCNC(=O)C2CCC2)n1
3. CC(C)c1cc(N2CCN(C)CC2)ccc1Nc1ncc(C(F)(F)F)c(NCCCNC(=O)C2CCC2)n1
4. CN1CCN(c2ccc(Nc3ncc(C(F)(F)F)c(NCCCNC(=O)C4CCC4)n3)c(C3CC3)c2)CC1

Response:
1. 6.52 to 7.00
2. 6.52 to 7.00
3. 7.00 to 8.00
4. 7.00 to 8.00

* * *

Give measured pIC50 for each item. Keep answers brief.
TARGET_SYSTEM: ULK1 kinase (Homo sapiens, UniProt O75385, E37A/K38A)
Construct: (residues 1-283; ID NO: 2)
Sequence (O75385 1-283 E37A/K38A): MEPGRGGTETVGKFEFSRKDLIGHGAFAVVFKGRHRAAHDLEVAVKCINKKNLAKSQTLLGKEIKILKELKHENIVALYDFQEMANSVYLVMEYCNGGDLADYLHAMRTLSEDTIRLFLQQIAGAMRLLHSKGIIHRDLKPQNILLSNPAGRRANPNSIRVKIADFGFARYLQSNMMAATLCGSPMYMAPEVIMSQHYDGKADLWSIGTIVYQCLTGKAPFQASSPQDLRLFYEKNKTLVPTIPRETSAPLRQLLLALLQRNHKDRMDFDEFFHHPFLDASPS
ASSAY_EXPLANATION: Biochemical assay for ULK1.3 (coupled pyruvate kinase/lactate dehydrogenase assay)
CONDITION_NOTES: 0.1 nM ULK1 (residues 1-283), peptide substrate, 1 mM ATP
pIC50: −log10 of the molar value.

SMILES_DATA: CC(C)c1cc(N2CCN(C)CC2)ccc1Nc1ncc(Br)c(NCCCNC(=O)C2CCC2)n1
TARGET_SYSTEM: ULK1 kinase (Homo sapiens, UniProt O75385, E37A/K38A)
QUANTITY: pIC50
RESULT_VALUE: 7.00 to 7.60
//
SMILES_DATA: CN1CCN(c2ccc(Nc3ncc(C(F)(F)F)c(NCCCNC(=O)C4CCC4)n3)c(C3CC3)c2)CC1
TARGET_SYSTEM: ULK1 kinase (Homo sapiens, UniProt O75385, E37A/K38A)
QUANTITY: pIC50
RESULT_VALUE: 7.60 to 9.00
//
SMILES_DATA: CC(C)Oc1cc(N2CCN(C)CC2)ccc1Nc1ncc(Cl)c(NCCCNC(=O)C2CCC2)n1
TARGET_SYSTEM: ULK1 kinase (Homo sapiens, UniProt O75385, E37A/K38A)
QUANTITY: pIC50
RESULT_VALUE: 4.70 to 6.30
//
SMILES_DATA: CCc1cc(N2CCN(C)CC2)ccc1Nc1ncc(C2CC2)c(NCCCNC(=O)C2CCC2)n1
TARGET_SYSTEM: ULK1 kinase (Homo sapiens, UniProt O75385, E37A/K38A)
QUANTITY: pIC50
RESULT_VALUE: 4.70 to 6.30
//
SMILES_DATA: Cc1nn(C(C)(C)C#N)cc1Nc1ncc(C(F)(F)F)c(NCCCNC(=O)C2CCC2)n1
TARGET_SYSTEM: ULK1 kinase (Homo sapiens, UniProt O75385, E37A/K38A)
QUANTITY: pIC50
RESULT_VALUE: 6.30 to 7.00
//
SMILES_DATA: CN1CCN(c2ccc(Nc3ncc(Br)c(NCCCNC(=O)C4CCC4)n3)c(C3CC3)c2)CC1
TARGET_SYSTEM: ULK1 kinase (Homo sapiens, UniProt O75385, E37A/K38A)
QUANTITY: pIC50
RESULT_VALUE: 7.00 to 7.60
//
SMILES_DATA: COc1cc(N2CCN(C)CC2)ccc1Nc1ncc(C(F)(F)F)c(NCCCNC(=O)C2CCC2)n1
TARGET_SYSTEM: ULK1 kinase (Homo sapiens, UniProt O75385, E37A/K38A)
QUANTITY: pIC50
RESULT_VALUE: 7.00 to 7.60
//
SMILES_DATA: Cc1nn(C(C)(C)C(N)=O)cc1Nc1ncc(C(F)(F)F)c(NCCCNC(=O)C2CCC2)n1
TARGET_SYSTEM: ULK1 kinase (Homo sapiens, UniProt O75385, E37A/K38A)
QUANTITY: pIC50
RESULT_VALUE: 4.70 to 6.30
//
SMILES_DATA: CCc1cc(N2CCN(C)CC2)ccc1Nc1ncc(Br)c(NCCCNC(=O)C2CCC2)n1
TARGET_SYSTEM: ULK1 kinase (Homo sapiens, UniProt O75385, E37A/K38A)
QUANTITY: pIC50
RESULT_VALUE: 7.00 to 7.60

Field: next compound
Query: Recorded pIC50 for `CC(C)c1cc(N2CCN(C)CC2)ccc1Nc1ncc(C(F)(F)F)c(NCCCNC(=O)C2CCC2)n1` with ULK1 kinase (Homo sapiens, UniProt O75385, E37A/K38A), please?
Response: 7.60 to 9.00

meta.source: patent US11590134B2
